Source of measurements: PubChem BioAssay (NCI)

- ASSAY_INFO: NCI Yeast Anticancer Drug Screen. Data for the bub3 strain (AID 167)
- EXPERIMENTAL_CONTEXT: S. cerevisiae bub3 mutant strain, at 50.0 µM (retest, dose inferred, filed as 5.0)
This is part of a sample that, as a whole, favours compounds with a hit. Of some 79,000 tested, about 15% had one in any assay. The source made the active and inactive calls. Cut-off read from the data, not from the text of the source: active = growth inhibition above about 70%; inactive = the rest.
Outcomes: 1.0 = active, 0.0 = inactive

> print(dat)
                                    molecule  class.label
 1  C[C@]12C[C@H](c3ccccc3)Nc3ccccc3N1C(c1ccccc1)=NO2          1.0
 2  CCOC(=O)N1C=CC(=C2C(=C3C=CN(C(=O)OCC)C=C3)C(=C3C=CN(C(=O)OCC)C=C3)C2=C2C=CN(C(=O)OCC)C=C2)C=C1          0.0
 3     N#CC(O)C(Br)(Br)Br (stereo not given)          0.0
 4             S=c1[nH]c2cc(Cl)ccc2s1.[Zn+2]          1.0
 5  c1ccc(Nc2nnc3nc(-c4ccccc4)c(-c4ccccc4)nn23)cc1          0.0
 6  Cc1cc(Cl)c2c(c1)C(=O)/C(=C/c1ccc(Cl)cc1)O2          1.0
 7  CCC[CH2][Sn]([CH2]CCC)([O]C(=O)C(OC)c1ccccc1)[O]C(=O)C(OC)c1ccccc1 (stereo not given)          1.0
 8              O=C1c2ccccc2-c2cc3ccccc3nc21          1.0
 9  CC(C)(S[S-])S[S-].[Ti].[c-]1[c-][c-][cH-][c-]1.[c-]1[c-][c-][cH-][c-]1          1.0
10      CN(C)N=Nc1c(-c2cccs2)n[nH]c1C(F)(F)F          1.0

###

- ASSAY_INFO: NCI Yeast Anticancer Drug Screen. Data for the mlh1 rad18 strain (AID 175)
- EXPERIMENTAL_CONTEXT: S. cerevisiae mlh1 rad18 strain growth inhibition; at 50.0 µM (retest, dose inferred, filed as 5.0); active compounds read high
Compounds without any hit were thinned out: in the full panel of roughly 79,000, 15% have a hit.
Recorded growth inhibition determines the label; the label ranges are low value: < 40%; medium value: ≥ 40% and < 90%; high value: ≥ 90%

> print(dat)
                                   molecule   class.label
1  O=C1OC(C2OC(=O)C(=O)C2C(=O)c2ccc([N+](=O)[O-])cc2)C(C(=O)c2ccc([N+](=O)[O-])cc2)C1=O (centres undefined)  medium value
2  CCn1c2ccccc2c2ccc(C3C(C(=O)OC)=C(C)NC(C)=C3C(=O)OC)cc21     low value
3  O=C(O)/C=C1\c2ccccc2CCC1c1ccc2ccccc2c1 (centres undefined)    high value
4  CN(C)c1ccc(C(c2ccc(N(C)C)cc2)c2cccc([N+](=O)[O-])c2)cc1     low value
5  Cc1ccc[n+](CC(=O)C2CCC3CC4CCCCC4CC3C2)c1 (centres undefined)  medium value
6  COc1ccc2c(c1)C(=O)/C(=C/c1ccc([N+](=O)[O-])o1)CO2    high value
7  ClC1=CC(Cl)=C2N=C(C(Cl)(Cl)Cl)N=C3N=C(C(Cl)(Cl)Cl)N=C1N32  medium value
8  CCCCCCCCCCN(CCCCCCCCCC)C1CC(OC2CC(O)(C(O)CO)Cc3c(O)c4c(c(O)c32)C(=O)c2c(OC)cccc2C4=O)OC(C)C1O (centres undefined)  medium value

###

- ASSAY_INFO: NCI Yeast Anticancer Drug Screen. Data for the rad50 strain (AID 155);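 note: 0% = growth of vehicle-only cultures of the same strain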
- EXPERIMENTAL_CONTEXT: S. cerevisiae rad50 strain growth inhibition; at 5.0 µM (retest, dose inferred, filed as 0.5); active compounds read high
The panel holds about 79,000 compounds, 15% with a hit somewhere; the sample as a whole holds those more often. Where a SMILES comes first, the peptide text is derived from it. The star is where a group is joined. Cbz = O=C(OCc1ccccc1)*
MEASURE: growth inhibition (%)

> print(dat)
                                    compound  result.units  value.measured
 1  O=C(O)/C=C/C(=O)Nc1cccc2c1C(=O)c1ccccc1-2             %              18
 2  CN(C)c1ccc(/C=C(\NC(=O)c2ccccc2)c2nc3ccccc3s2)cc1             %              35
 3  CC(=O)[C@H]1CC[C@H]2[C@@H]3CC[C@H]4C[C@@H](N5CCOCC5)CC[C@]4(C)[C@H]3CC[C@]12C             %              54
 4  CC(=O)Oc1ccc(/C=C2\N=C(c3ccccc3)OC2=O)c(OC(C)=O)c1             %               4
 5  CCOC(=O)CNC(=O)CNC(=O)CNC(=O)OCc1ccccc1 (Cbz-Gly-Gly-Gly-OEt)             %              -9
 6                 NNc1ncc2c(n1)-c1ccccc1OC2             %              23
 7  O=[N+]([O-])/C(C(Cl)=C(Cl)Cl)=C(/Nc1ccccc1)SCc1ccccc1             %              32
 8                   O=CCCCc1cc2c(cc1Br)CCC2             %               0
 9            Clc1nc(Cl)nc(N2CCCc3ccccc32)n1             %             -24
10                CC(=O)c1cc(I)c(O)c2ncccc12             %              96
11       C[n+]1c(/C=C/c2ccccc2Cl)ccc2ccccc21             %              -3

###

- ASSAY_INFO: NCI Yeast Anticancer Drug Screen. Data for the cln2 rad14 strain (AID 165);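 note: 0% = growth equal to vehicle treated cultures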
- EXPERIMENTAL_CONTEXT: S. cerevisiae cln2 rad14 strain, at 50.0 µM
Compounds without any hit were thinned out: in the full panel of roughly 79,000, 15% have a hit. Calls of active or inactive are those of the source. Rule as the data show it: active = growth inhibition above about 70%; inactive = the rest.
Labels: 1 for active, -1 for inactive

COMPOUND	CLASS_LABEL
C/C(=N\NC(=S)N1CCN(c2ccccc2)CC1)c1nccs1	1
Cc1ccc(C(OS(=O)(=O)c2ccc(C)cc2)C(F)(F)F)cc1 (stereo not drawn)	-1
O=C(NC(c1ccccc1)N1CCOCC1)c1ccccc1 (stereo not drawn)	1
COC(=O)C1(NC(=O)C(CC(=O)OCc2ccccc2)NC(=O)OCc2ccccc2)CCCCCC1 (stereo not drawn)	1
COc1ccc(CC2c3cc4c(cc3CCN2C)OCO4)c(C=O)c1OC (stereo not drawn)	1
CSC(=S)N/N=C\C(C)=N/N=C(N)N	-1
Cc1cccc2c(C(=O)CBr)cc(-c3ccc(Cl)cc3)nc12	1
COC1/C=C/OC2(C)Oc3c(C)c(O)c4c5c(cc(O)c4c3C2=O)N=C(O5)/C(C)=C\C=C\C(C)C(O)C(C)C(O)C(C)C(OC(C)=O)C1C (stereo not drawn)	-1
N#CC(C(=O)C(=O)Nc1ccc(Cl)c(Cl)c1)c1c(Cl)cccc1Cl (stereo not drawn)	-1
COC(=O)CC1SC(=S)N(Cc2ccc(Cl)cc2)C1=O (stereo not drawn)	-1
O=C1c2cccc(O)c2C(=O)c2c(O)cc(CO)cc21	1
O=C(O)/C=C/c1ccc2c(c1)CCCC2	1
O=C(C(/C=N/C(=S)NCc1ccccc1)=C(/O)c1ccccc1)c1ccccc1	1
Clc1ccc(C2=NCON=C2c2ccc(Cl)cc2)cc1	1
CCCC(=O)c1cc(O)c(O)c(CN(C)Cc2cc(Cl)cc(C)c2O)c1O	-1
COc1ccc(NC(=O)C(Cc2ccccc2)NC(C)=O)cc1 (stereo not drawn)	-1
C=C1CC(C)(C)C(c2ccccc2)OC1=O (stereo not drawn)	-1
COC(=O)Cc1nc2ccccc2s1	1
O=C1OC(c2ccccc2)(c2ccc(-c3ccc(O)cc3)cc2)c2ccccc21 (stereo not drawn)	1
COc1ccc(-c2cc(-c3ccc4c(c3)CC(C)O4)nc(N)n2)cc1 (stereo not drawn)	1
Cc1ccc2nc(CC(=O)c3cccnc3)c(CC(=O)c3cccnc3)nc2c1	1
CC(C)CCCC(C)C1CCC2C3CCC4=CC(O)CCC4(C)C3CCC12C (stereo not drawn)	1
NS(=O)(=O)c1ccc(NC(=O)Cc2nc3ccccc3s2)cc1	1
O=C(/C=C(\OB(F)F)c1ccccc1)c1ccccc1	1
Oc1ccccc1C1C=C(c2ccccc2)NC(N2CCCCC2)=C1c1nc2ccccc2[nH]1 (stereo not drawn)	-1
CC(=O)Oc1c(O)c2ccccc2c2ccccc12	1
O=C(O)c1c2c(c(O)c3c1CN(C1CCCCC1)CO3)OCN(C1CCCCC1)C2	1
CCO/C=C1N=C(/C=C/c2ccc(Cl)cc2)OC/1=O	-1
CC(C)(C)C(=O)CC(=O)C(F)(F)C(F)(F)C(F)(F)F.CC(C)(C)C(=O)CC(=O)C(F)(F)C(F)(F)C(F)(F)F.CC(C)(C)C(=O)CC(=O)C(F)(F)C(F)(F)C(F)(F)F.[Gd]	1
C=C1C(=O)O[C@@H]2C[C@@]3(C)CCC[C@H](C)C3=C[C@H]12 (tested in a mixture with another compound)	1
CCCCCCCN(CCCCCCC)CC(=O)NC(=O)c1ccccc1	1
Clc1nssc1=Nc1nonc1-c1ccccc1	-1
COc1ccc(/C=N/N=c2\[nH][nH]/c(=N\N=C\c3ccc(OC)c4ccccc34)c3ccccc23)c2ccccc12	-1
CCCCOCN(CC(CC)CCCC)CC(CC)CCCC (stereo not drawn)	-1
Cc1c2[nH]c3ccc(Br)cc3c2c(C)c2[nH]ccc(=O)c12	1
COc1ccc(C2COc3c(ccc(O)c3O)C2)cc1 (stereo not drawn)	1
COCCn1cc(F)c(=O)[nH]c1=O	-1
COc1ccc(C2CC(c3sc(Nc4ccc(C)cc4)nc3C)=NN2)cc1 (stereo not drawn)	-1
O=C1/C(=C\c2ccccc2)CN(C(=O)CCN2CCCCC2)C/C1=C/c1ccccc1	1
OCC1CC[N-]CC1.OCC1CC[N-]CC1.[Cl][Pt+2]([Cl])([Cl])[Cl]	1
O=C(O)c1nc2cc(C(F)(F)F)ccc2nc1Nc1ccc(F)cc1	1
CC1=C/C(=C\C=C2/N(C)c3c(C)cccc3C2(C)C)C(=O)c2ncccc21	-1
CN1N=C2c3ccccc3CC[C@H]2C1c1cccc(O)c1 (stereo partly drawn)	-1
